- TEST_SYSTEM: UniProt P32245
- PROTOCOL_SUMMARY: High and low density hMC4-R functional assay (cAMP, HEK293-T-REx-MC4-R cells)
- Format: cell-based
- PROTOCOL_CONDITIONS: 0.1 ng/mL Doxycycline (low density hMC4-R system); NDP-α-MSH = 100%; read-out: Intrinsic Activity (%)
Kindly state Emax for each of the entries shown.
Your answer should be a plain number; it is taken to be in %.

Lookup: Would you kindly share the measured Emax for `CC(=O)N[C@@H](CCCNC(=N)N)C(=O)N[C@H]1CCC(=O)NCCC[C@@H](C(N)=O)NC(=O)[C@H](Cc2c[nH]c3ccccc23)NC(=O)[C@H](CCCNC(=N)N)NC(=O)[C@@H](Cc2cc(F)cc(F)c2)NC(=O)[C@H](CCN)NC1=O` ?
Found: 64

Lookup: Would you kindly share the measured Emax for `CC(=O)N[C@@H](CCCNC(=N)N)C(=O)N[C@H]1CCC(=O)NCCC[C@@H](C(N)=O)NC(=O)[C@H](Cc2c[nH]c3ccccc23)NC(=O)[C@H](CCCNC(=N)N)NC(=O)[C@@H](Cc2cccc(C(F)(F)F)c2)NC(=O)[C@H](CCN)NC1=O` ?
Found: 16

###

- TEST_SYSTEM: hMC4-R (Homo sapiens (Human), UniProt P32245)
- Sequence (P32245 whole entry): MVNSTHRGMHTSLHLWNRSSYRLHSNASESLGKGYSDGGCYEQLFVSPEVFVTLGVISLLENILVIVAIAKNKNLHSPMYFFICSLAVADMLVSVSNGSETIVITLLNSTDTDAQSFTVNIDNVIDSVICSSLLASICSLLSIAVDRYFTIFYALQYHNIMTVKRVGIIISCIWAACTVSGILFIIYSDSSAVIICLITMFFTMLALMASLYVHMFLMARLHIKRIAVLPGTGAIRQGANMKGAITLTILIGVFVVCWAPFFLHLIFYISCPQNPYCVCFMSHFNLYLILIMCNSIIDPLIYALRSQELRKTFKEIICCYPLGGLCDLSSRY
- PROTOCOL_SUMMARY: High and low density hMC4-R functional assay (cAMP, HEK293-T-REx-MC4-R cells)
- Assay type: cell-based
- PROTOCOL_CONDITIONS: 10 ng/mL Doxycycline (high density hMC4-R system)
ASSAY_READOUT: pEC50
Scale for pEC50: -log10 of concentration given in mol/L; no unit attached.

Lookup: Would you kindly share the measured pEC50 for CC(=O)N[C@@H](CCCNC(=N)N)C(=O)N[C@H]1CCC(=O)NCCC[C@@H](C(N)=O)NC(=O)[C@H](Cc2c[nH]c3ccccc23)NC(=O)[C@H](CCCNC(=N)N)NC(=O)[C@@H](Cc2ccc(C(F)(F)F)cc2)NC(=O)[C@H](CCN)NC1=O [Example 20] ?
Found: 9.12

Lookup: Would you kindly share the measured pEC50 for CC(=O)N[C@@H](CCCNC(=N)N)C(=O)N[C@H]1CCC(=O)NCCC[C@@H](C(=O)O)NC(=O)[C@H](Cc2c[nH]c3ccccc23)NC(=O)[C@H](CCCNC(=N)N)NC(=O)[C@@H](Cc2ccccc2Cl)NC(=O)[C@H](CCCN)NC1=O [Example 49] ?
Found: 9.63

###

Kindly state log10 of EC50 for each of the entries shown.
- TEST_SYSTEM: hMC4-R (Homo sapiens (Human))
- PROTOCOL_SUMMARY: High and low density hMC4-R functional assay (cAMP, HEK293-T-REx-MC4-R cells)
- Assay type: cell-based
- PROTOCOL_CONDITIONS: 10 ng/mL Doxycycline (high density hMC4-R system)
Positions of bridges follow the written chain, without caps; N, C: chain ends. Non-standard residues stand in square brackets, D forms with d. Residues, ends and D or L forms follow the SMILES beside them. dPhe(4-CN) = N#Cc1ccc(C[C@@H](N)C(=O)O)cc1
Please keep in mind that the values are log10 of EC50 expressed in nM.

Lookup: Would you kindly share the measured log10 of EC50 for `CC(=O)N[C@@H](CCCNC(=N)N)C(=O)N[C@H]1CCC(=O)NCCC[C@@H](C(N)=O)NC(=O)[C@H](Cc2c[nH]c3ccccc23)NC(=O)[C@H](CCCNC(=N)N)NC(=O)[C@@H](Cc2ccccc2C(F)(F)F)NC(=O)[C@H](CC(N)=O)NC1=O` ?
Found: -1.02

Lookup: Would you kindly share the measured log10 of EC50 for `CC(=O)N[C@@H](CCCNC(=N)N)C(=O)N[C@H]1CCC(=O)NCCC[C@@H](C(N)=O)NC(=O)[C@H](Cc2c[nH]c3ccccc23)NC(=O)[C@H](CCCNC(=N)N)NC(=O)[C@@H](Cc2ccc(F)cc2)NC(=O)[C@H](CCN)NC1=O` ?
Found: -1.22

Lookup: Would you kindly share the measured log10 of EC50 for `CC(=O)N[C@@H](CCCNC(=N)N)C(=O)N[C@H]1CCC(=O)NCCC[C@@H](C(N)=O)NC(=O)[C@H](Cc2c[nH]c3ccccc23)NC(=O)[C@H](CCCNC(=N)N)NC(=O)[C@@H](Cc2cccc(Cl)c2)NC(=O)[C@H]([C@@H](C)O)NC1=O` ?
Found: 0.00

Lookup: Would you kindly share the measured log10 of EC50 for `CC(=O)N[C@@H](CCCNC(=N)N)C(=O)N[C@H]1CCC(=O)NCCC[C@@H](C(N)=O)NC(=O)[C@H](Cc2c[nH]c3ccccc23)NC(=O)[C@H](CCCNC(=N)N)NC(=O)[C@@H](Cc2cc(F)c(F)c(F)c2)NC(=O)[C@H](CCN)NC1=O` ?
Found: -0.48

Lookup: Would you kindly share the measured log10 of EC50 for `CC(=O)N[C@@H](CCCNC(=N)N)C(=O)N[C@H]1CCC(=O)NCCC[C@@H](C(N)=O)NC(=O)[C@H](Cc2c[nH]c3ccccc23)NC(=O)[C@H](CCCNC(=N)N)NC(=O)[C@@H](Cc2ccccc2F)NC(=O)[C@H](CCN)NC1=O` ?
Found: -1.46

Lookup: Would you kindly share the measured log10 of EC50 for `CC(=O)N[C@@H](CCCNC(=N)N)C(=O)N[C@H]1CCC(=O)NCCC[C@@H](C(N)=O)NC(=O)[C@H](Cc2c[nH]c3ccccc23)NC(=O)[C@H](CCCNC(=N)N)NC(=O)[C@@H](Cc2ccc(C#N)cc2)NC(=O)[C@H](CCN)NC1=O` ?
Found: -0.87

Lookup: Would you kindly share the measured log10 of EC50 for `CC(=O)N[C@@H](CCCNC(=N)N)C(=O)N[C@H]1CCC(=O)NCCC[C@@H](C(N)=O)NC(=O)[C@H](Cc2c[nH]c3ccccc23)NC(=O)[C@H](CCCNC(=N)N)NC(=O)[C@@H](Cc2ccccc2Cl)NC(=O)[C@@H]2C[C@@H](O)CN2C1=O` ?
Found: -0.82

Lookup: Would you kindly share the measured log10 of EC50 for CC(=O)N[C@@H](CCCNC(=N)N)C(=O)N[C@H]1CCCCNC(=O)C[C@@H](C(N)=O)NC(=O)[C@H](Cc2c[nH]c3ccccc23)NC(=O)[C@H](CCCNC(=N)N)NC(=O)[C@@H](Cc2ccc(C#N)cc2)NC(=O)[C@H](CCC(N)=O)NC1=O [Example 93] (Ac-RKQ[dPhe(4-CN)]RWD-NH2; lactam 2-7) ?
Found: -0.77
